test system: K86415-001-R-J1-PDC complex spheroids, viability; experiment: Anticancer human tumor K86415-001-R-J1-PDC patient-derived lung adenocarcinoma cell line growth inhibition [RAS]; conditions: second compound 0.03 µM; first compound 10 µM; hits give low values;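 note: spheroids exposed to agents for seven days before readout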
MEASURE: viability, T/C (%)
// units = %; emit number, no label

Identify the measured viability, T/C of CC(=O)OC12COC1CC(O)C1(C)C(=O)C(O)C3=C(C)C(OC(=O)C(O)C(NC(=O)OC(C)(C)C)c4ccccc4)CC(O)(C(OC(=O)c4ccccc4)C21)C3(C)C (centres undefined) + CCn1c(-c2cccnc2C(C)OC)c2c3cc(ccc31)N1CCOC(CC(NC(=O)C(C(C)C)N(C)C(=O)C3(F)CCN(C(=O)C#CC(C)(C)N(C)C)CC3)C(=O)N3CCCC(N3)C(=O)OCC(C)(C)C2)C1 for K86415-001-R-J1-PDC complex spheroids, viability. 12.1

Identify the measured viability, T/C of NC1c2ccccc2OC12CCN(c1cnc3c(N4CCCc5ncccc54)n[nH]c3n1)CC2 (centres undefined) + CCn1c(-c2cc(N3CCN(C)CC3)cnc2C(C)OC)c2c3cc(ccc31)-c1csc(n1)CC(NC(=O)C1CC1C)C(=O)N1CCCC(N1)C(=O)OCC(C)(C)C2 for K86415-001-R-J1-PDC complex spheroids, viability. 5.21

Identify the measured viability, T/C of CCC(CC)c1cc(NC2CCC(N)C2)n2nccc2n1 (centres undefined) + CCn1c(-c2cccnc2C(C)OC)c2c3cc(ccc31)N1CCOC(CC(NC(=O)C(C(C)C)N(C)C(=O)C3(F)CCN(C(=O)C#CC(C)(C)N(C)C)CC3)C(=O)N3CCCC(N3)C(=O)OCC(C)(C)C2)C1 for K86415-001-R-J1-PDC complex spheroids, viability. 3.54

Identify the measured viability, T/C of CC(C)NCC(C(=O)N1CCN(c2ncnc3c2C(C)CC3O)CC1)c1ccc(Cl)cc1 (centres undefined) + CCn1c(-c2cc(N3CCN(C)CC3)cnc2C(C)OC)c2c3cc(ccc31)-c1csc(n1)CC(NC(=O)C1CC1C)C(=O)N1CCCC(N1)C(=O)OCC(C)(C)C2 for K86415-001-R-J1-PDC complex spheroids, viability. 0.65
